The reported measurements were obtained from patent US8748462B2.

Entries annotated with measured EC50
Biological target: human GPR40 (Homo sapiens)
Construct: expressed in transfected cells; host or cells: CHO cells stably transfected with GPR40 and Aequorin
Sequence (O14842 whole entry): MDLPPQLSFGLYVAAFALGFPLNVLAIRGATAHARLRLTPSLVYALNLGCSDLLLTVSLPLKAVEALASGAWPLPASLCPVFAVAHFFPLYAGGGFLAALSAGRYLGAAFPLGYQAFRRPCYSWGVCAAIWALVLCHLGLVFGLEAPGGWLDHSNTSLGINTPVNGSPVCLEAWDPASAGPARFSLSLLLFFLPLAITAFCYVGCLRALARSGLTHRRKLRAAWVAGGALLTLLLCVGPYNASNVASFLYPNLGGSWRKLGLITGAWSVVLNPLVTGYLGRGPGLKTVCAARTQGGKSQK
Assay: Inositol phosphate accumulation assay
Type: cell-based
Conditions: A9 cell line stably transfected with GPR40; 1 hour at 37° C.; read-out: IP3 EC50

A selection of reference data follows.
COc1ccc(F)c(-c2ccc(COc3ccc4c(c3)[C@]3(CC4)C[C@H]3C(=O)O)cc2[C@H]2CCCCC2(C)C)c1 (single isomer, unassigned) : < 10 nM
COc1ccc(F)c(-c2ccc(COc3ccc4c(c3)[C@]3(CC4)C[C@H]3C(=O)O)cc2C2=CCCC2(C)C)c1 : < 10 nM
COc1cc(-c2ccc(COc3ccc4c(c3F)[C@]3(CCC4)C[C@H]3C(=O)O)cc2[C@@H](OC)C(C)(C)C)c(F)cn1 (single isomer, unassigned) : < 10 nM
COc1ccc(F)c(-c2ccc(COc3ccc4c(c3)[C@]3(CC4)C[C@H]3C(=O)O)cc2CC(C)(C)C)c1 : < 10 nM
COc1cc(-c2ccc(COc3ccc4c(c3)[C@]3(CC4)C[C@H]3C(=O)O)cc2[C@@H]2CCCC2(C)C)c(F)cn1 : < 10 nM

What EC50 value was documented for this compound, COc1ccc(F)c(-c2ccc(COc3ccc4c(c3)[C@]3(CCC4)C[C@H]3C(=O)O)cc2C2=CCCC2(C)C)c1 ?
10 to 100 nM

What EC50 value was documented for this compound, CO[C@@H](c1cc(COc2ccc3c(c2)[C@]2(CCC3)C[C@H]2C(=O)O)ccc1-c1cccc(Cl)c1)C(C)(C)C (racemic) ?
10 to 100 nM

What EC50 value was documented for this compound, COc1ccc(F)c(-c2ccc(COc3ccc4c(c3)[C@]3(CC4)C[C@H]3C(=O)O)cc2C2(OC)CCCC2)c1 ?
10 to 100 nM
